System under test: Human immunodeficiency virus type 1 protease (Human immunodeficiency virus 1, UniProt Q72874)
// pIC50 lookup, one value per entry
Expect pIC50 as a plain number equal to -log10 of the molar concentration.

Here is how some compounds turned out for pIC50.
Molecular string | pIC50
C[C@H]1CN(CC(=O)N[C@@H](Cc2ccccc2)[C@H](O)CN(C2CC2)S(=O)(=O)c2ccc([N+](=O)[O-])cc2)CCO1 | 6.24
O=C(CN1CCOCC1)N[C@@H](Cc1ccccc1)[C@H](O)CN(C1CC1)S(=O)(=O)c1ccc([N+](=O)[O-])cc1 | 5.27

Please examine the following record next.
Req: Consider the compound COc1ccc(S(=O)(=O)N(C[C@@H](O)[C@H](Cc2ccccc2)NCC(=O)N2CCOCC2)C2CC2)cc1 and give its measured pIC50.
Resp: 6.74
